# Test system: OVCAR-4 ovarian
# assay.summary: NCI tumour cell line growth inhibition, 48 h; in the data active = GI50 below about 0.43 µM; inactive = the rest
Write down the outcome that applies. Available outcomes: 1 (active), -1 (inactive)

Req: For `Nc1nc(N)c2cc(S(=O)(=O)c3cccc(C(F)(F)F)c3)ccc2n1` , what call appears in the results of this test?
Resp: -1

Req: So what was the verdict on `[O-]c1ccccc1C=NCCN=Cc1ccccc1[O-].[O]=[U+2]=[O]` in this test?
Resp: -1

Req: Assay outcome for `N#Cc1nc2cc(Cl)c(Cl)cc2nc1-c1ccc(Cl)cc1` : what was it?
Resp: -1

Req: State the result this test recorded for `CC[O-].CC[O-].[O-]c1ccccc1C=NC12CC3CC(CC(C3)C1)C2.[O-]c1ccccc1C=NC12CC3CC(CC(C3)C1)C2.[Ti+4]` .
Resp: -1

Req: Please share the test call associated with `O=C(O)CN(CCN(CC(=O)O)CC(=O)O)CCN(CC(=O)O)CC(=O)O` .
Resp: -1

Req: // outcome(item) with item = `CCN(Cc1ccccc1)c1ccc(/C=C2\COc3ccccc3C2=O)cc1`
Resp: -1

Req: // return assay outcome for `C=C(C)[C@@H]1CC[C@]2(C(=O)OC)CC[C@]3(C)[C@H](CC[C@@H]4[C@@](C)(CCc5nn[nH]n5)[C@H](C(=C)C)CC[C@]43C)[C@@H]12`
Resp: -1

Req: Check the results log: what was the call for COc1cccc2c1C(=O)c1c(O)c3c(c(O)c1C2=O)C[C@@](O)(/C(C)=N/NC(=O)c1cccc([N+](=O)[O-])c1)C[C@@H]3OC1CC(N)C(O)C(C)O1 (some centres not stated) ?
Resp: -1

Req: Just curious, what result did CCCCCCCCCCCC(c1ccccc1)[N+](C)(C)C (configuration not stated) get here?
Resp: -1

Req: State the result this test recorded for `Cc1ccc(NC(=O)c2ccoc2)cc1-c1ccc(C(=O)NCC2CC2)cc1` .
Resp: -1

Req: Hey, what did the test say about `CCn1c(-c2nonc2N)nc2cnc(Oc3cccc(NC(=O)c4ccc(OCCN5CCOCC5)cc4)c3)cc21` ?
Resp: -1

Req: Please indicate how the test categorized `CCCN1CCC(Oc2cc(Nc3nc(Nc4cccc(F)c4C(N)=O)c4cc[nH]c4n3)c(OC)cc2Cl)CC1` .
Resp: -1

Req: Assay result, entry `CC(C)Cn1cnc2c(N)nc3ccccc3c21` — outcome?
Resp: -1

Req: Could you check what this test reported for `c1ccc2[nH]c(-c3ccc(Nc4nc(N5CCCC5)nc5[nH]ncc45)cc3)nc2c1` ?
Resp: -1

Req: I'd appreciate the recorded outcome for COC1C(OC(=O)/C=C/C=C/C=C/C=C/C(=O)O)CCC2(CO2)C1C1(C)OC1CC=C(C)C (configuration not stated) from this test.
Resp: 1

Req: Test call, this compound: `CC(=O)Nc1ccc(CC[C@H]2CCC/C=C/[C@@H]3C[C@H](O)C[C@H]3[C@H](O)/C=C/C(=O)O2)cc1`
Resp: 1

Req: Record request — test call for `CN1CCN(c2cc(F)c(NC3=C(Cl)C(=O)c4ncccc4C3=O)c(F)c2)CC1`
Resp: -1
